assay: Acute toxicity in ICR mouse assessed as animal survival at 585.9 mg/kg, ip measured for 2 weeks; assay type: organism-based; conditions: in vivo
property-name: survival at 336 h (%)

CN1CCN(c2ccc(Nc3ncc(F)c(Nc4ccccc4C(=O)NN)n3)cc2)CC1 0

---

Form field: IC50 (one value per entry).
system: K562; experiment: cells; details: Homo sapiens, K562, 72 h
Description: Antiproliferative activity against human K562 cells assessed as inhibition of cell growth incubated for 72 hrs by CCK8 assay

molecule	IC50
C=CC(=O)N1CCC[C@@H](n2nc(-c3ccc(Oc4ccccc4)cc3)c3c(N)ncnc32)C1 [IBRUTINIB]	5.57 µM
CN1CCN(c2ccc(Nc3ncc(F)c(Nc4ccccc4C(=O)NN)n3)cc2F)CC1	0.69 µM
CNC(=O)c1cc(Oc2ccc(NC(=O)Nc3ccc(Cl)c(C(F)(F)F)c3)cc2)ccn1 [SORAFENIB]	7.74 µM
C=CC(=O)Nc1cccc(Nc2nc(Nc3ccc(OCCOC)cc3)ncc2F)c1 [SPEBRUTINIB]	7.4 µM
CN1CCN(c2ccc(Nc3ncc(F)c(Nc4ccccc4C(=O)NN)n3)cc2)CC1	0.93 µM
NNC(=O)c1ccccc1Nc1nc(Nc2ccc(N3CCOCC3)cc2)ncc1F	> 25 µM
